- studyTarget: human NPP1 (Homo sapiens)
- Construct: made in house; host or cells: COS-7 cells (transfected; protein extract / cell lysate)
- Sequence (P22413 1-925): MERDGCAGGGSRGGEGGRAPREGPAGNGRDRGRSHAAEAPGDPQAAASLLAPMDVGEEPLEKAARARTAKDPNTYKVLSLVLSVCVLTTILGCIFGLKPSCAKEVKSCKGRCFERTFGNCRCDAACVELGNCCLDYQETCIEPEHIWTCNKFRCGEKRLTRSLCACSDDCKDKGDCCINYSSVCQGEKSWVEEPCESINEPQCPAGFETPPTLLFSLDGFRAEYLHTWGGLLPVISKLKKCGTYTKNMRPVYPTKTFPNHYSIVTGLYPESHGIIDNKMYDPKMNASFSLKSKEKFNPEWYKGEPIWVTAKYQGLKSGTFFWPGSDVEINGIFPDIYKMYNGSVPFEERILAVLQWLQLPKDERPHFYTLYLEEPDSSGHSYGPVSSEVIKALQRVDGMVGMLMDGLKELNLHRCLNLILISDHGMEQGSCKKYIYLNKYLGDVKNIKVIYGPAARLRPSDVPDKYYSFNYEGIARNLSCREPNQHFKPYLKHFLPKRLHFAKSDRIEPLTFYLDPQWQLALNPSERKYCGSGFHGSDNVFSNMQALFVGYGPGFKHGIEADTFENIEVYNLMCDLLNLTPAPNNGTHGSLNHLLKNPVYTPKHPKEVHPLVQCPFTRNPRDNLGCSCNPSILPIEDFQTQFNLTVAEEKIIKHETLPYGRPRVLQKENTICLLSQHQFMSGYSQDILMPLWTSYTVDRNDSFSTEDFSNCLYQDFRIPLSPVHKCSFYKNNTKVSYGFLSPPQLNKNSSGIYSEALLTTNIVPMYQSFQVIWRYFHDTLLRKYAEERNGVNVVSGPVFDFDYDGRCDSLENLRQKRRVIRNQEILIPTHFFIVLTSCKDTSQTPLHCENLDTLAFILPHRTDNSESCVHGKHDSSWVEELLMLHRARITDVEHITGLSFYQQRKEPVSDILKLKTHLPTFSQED
- testDescription: Inhibition of NPP1 activity
- Type: biochemical
outcomeMeasure: pIC50
Value format note: pIC50 is -log10 of concentration (mol/L); just state the number.

Field request: pIC50 | item: Nc1ncnc2c1ncn2[C@@H]1O[C@H](COP(O)(=S)OP(=O)(O)C(Cl)(Cl)P(=O)(O)O)[C@@H](O)[C@H]1O (single isomer, unassigned) [APPCCl2P-α-S] 6.41

###

- studyTarget: human NPP1 (Homo sapiens, UniProt P22413)
- Construct: made in house; host or cells: COS-7 cells (transfected; protein extract / cell lysate)
- Sequence (P22413 1-925): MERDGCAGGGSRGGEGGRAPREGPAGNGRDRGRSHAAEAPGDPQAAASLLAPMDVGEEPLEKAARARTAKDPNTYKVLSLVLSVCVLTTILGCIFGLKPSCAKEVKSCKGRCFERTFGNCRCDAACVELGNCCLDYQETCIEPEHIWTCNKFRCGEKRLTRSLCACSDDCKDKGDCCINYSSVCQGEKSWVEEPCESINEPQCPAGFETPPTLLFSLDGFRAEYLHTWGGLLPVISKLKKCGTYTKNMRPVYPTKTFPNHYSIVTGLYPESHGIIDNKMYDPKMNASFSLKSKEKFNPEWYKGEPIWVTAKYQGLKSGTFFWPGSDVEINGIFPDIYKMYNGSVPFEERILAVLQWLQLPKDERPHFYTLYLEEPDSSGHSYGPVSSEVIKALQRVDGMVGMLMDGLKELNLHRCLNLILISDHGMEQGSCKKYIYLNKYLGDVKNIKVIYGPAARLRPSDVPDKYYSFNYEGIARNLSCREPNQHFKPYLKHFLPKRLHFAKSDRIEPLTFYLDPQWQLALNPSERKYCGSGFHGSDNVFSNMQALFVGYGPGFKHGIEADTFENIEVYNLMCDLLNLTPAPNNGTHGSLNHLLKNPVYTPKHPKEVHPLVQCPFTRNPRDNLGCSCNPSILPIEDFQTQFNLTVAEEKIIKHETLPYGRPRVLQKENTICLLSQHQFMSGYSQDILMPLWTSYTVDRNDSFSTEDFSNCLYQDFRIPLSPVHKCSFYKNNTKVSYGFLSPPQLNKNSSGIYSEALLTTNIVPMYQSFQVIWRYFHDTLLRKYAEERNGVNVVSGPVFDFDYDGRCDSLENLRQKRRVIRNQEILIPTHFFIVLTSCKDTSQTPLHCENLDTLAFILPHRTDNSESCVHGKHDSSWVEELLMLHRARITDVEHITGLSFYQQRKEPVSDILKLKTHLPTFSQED
- testDescription: Inhibition of NPP1 activity
- Assay type: biochemical
- testSettings: pNP-TMP as substrate, Dixon plot; listed as APPCP-α-S B; read-out: Ki
outcomeMeasure: Ki
Show the value, then the unit it is measured in.

Field request: Ki | item: Nc1ncnc2c1ncn2[C@@H]1O[C@H](COP(O)(=S)OP(=O)(O)CP(=O)(O)O)[C@@H](O)[C@H]1O (single isomer, unassigned; isomer b) [APPCP-α-S (isomer B)] 1300 nM

###

Give measured pIC50 for each item. Keep answers brief.
- Tested on: PC12 cells
- testDescription: Inhibition of Fe(II)-induced ROS formation in PC12 cells (DCFH-DA)
- Format: cell-based
- testSettings: PC12 cells, FeSO4 0.16 μM, 1 h, DCFH-DA; read-out: IC50 inhibition of ROS formation
Value format note: pIC50 is -log10 of concentration (mol/L); just state the number.

Field request: pIC50 | item: Nc1ncnc2c1ncn2[C@@H]1O[C@H](COP(=O)(O)OP(=O)(O)OP(O)(O)=S)[C@@H](O)[C@H]1O [ATP-γ-S, Adenosine 5′-[γ-thio]-triphosphate] 6.74

Field request: pIC50 | item: Nc1nc2c(ncn2[C@@H]2O[C@H](COP(=O)(O)OP(=O)(O)OP(O)(O)=S)[C@@H](O)[C@H]2O)c(=O)[nH]1 [GTP-γ-S, guanosine 5′-[γ-thio]triphosphate] 5.30

Field request: pIC50 | item: Nc1ncnc2c1ncn2[C@@H]1O[C@H](COP(=O)(O)OP(O)(O)=S)[C@@H](O)[C@H]1O [ADP-β-S, adenosine 5′-[β-thio]diphosphate, reference compound] 4.59

Field request: pIC50 | item: Nc1nc2c(ncn2[C@@H]2O[C@H](COP(=O)(O)OP(O)(O)=S)[C@@H](O)[C@H]2O)c(=O)[nH]1 [GDP-β-S, guanosine 5′-[β-thio]diphosphate] 5.00

###

- studyTarget: human NPP1 (Homo sapiens, UniProt P22413)
- Construct: made in house; host or cells: COS-7 cells (transfected; protein extract / cell lysate)
- testDescription: Inhibition of NPP1 activity
- Format: biochemical
- testSettings: pNP-TMP as substrate, Dixon plot; listed as APPCP-α-S A; read-out: Ki
outcomeMeasure: pKi
Value format note: pKi is -log10 of concentration (mol/L); just state the number.

Field request: pKi | item: Nc1ncnc2c1ncn2[C@@H]1O[C@H](COP(O)(=S)OP(=O)(O)CP(=O)(O)O)[C@@H](O)[C@H]1O (single isomer, unassigned; isomer a) [APPCP-α-S (isomer A)] 5.35
